Readings of inhibition for the listed compounds
System: glucose-6-phosphate dehydrogenase-6-phosphogluconolactonase (Plasmodium falciparum 3D7)
Protocol Summary: inhibition of malaria parasite G6PD (PfGluPho) – biochemical, fluorescence intensity, uHTS, primary screen (AID 504690);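 further: 0% = DMSO wells with substrate and 100% = DMSO wells lacking glucose-6-phosphate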
Run Parameters: PfGluPho enzyme, NADPH resazurin-diaphorase fluorescence; at 20 µM; hits give high values
Out of some 350,000 compounds screened, about 2,700 (0.77%) were called active. This is one part of a sample in which actives are shown more often than they occur.

Compound	inhibition / %
C[C@]12CCCCC1=CC(=O)C1C2CC[C@@]2(C)C1C[C@@H](F)[C@@H]2O (some centres not stated)	-7.47
COc1ccc(N2C(=O)/C(=C/c3ccco3)C(=O)NC2=S)cc1	23.2
COc1cccc(N2C(=O)NC(=O)/C(=C\c3ccc([N+](=O)[O-])s3)C2=O)c1	56
N#Cc1ccc(Cn2cc(C(=O)c3ccco3)c3ccccc32)cc1	4.04
O=C(CN1CCCCC1)Nc1ccc(Br)cc1C(=O)c1ccccc1Cl	0.87
CCOP(=S)(OCC)SCOC(=O)NCC(=O)OC	-4.03
CCOP(=O)(OCC)C(NC(=O)c1ccc(C)cc1)C(Cl)(Cl)Cl (configuration not stated)	1.69
O=C1NC(=O)N(CCc2ccc(F)cc2)C(=O)/C1=C/C=C/c1ccccc1	4.03
c1ccc(C(CN2CCCCC2)c2ccccc2)cc1	-1.44
O=C1NC(=O)N(Cc2ccco2)C(=O)/C1=C\c1ccc(-c2ccc(F)cc2)o1	72
O=C1NC(=O)N(c2ccccc2)C(=O)/C1=C/c1ccc([N+](=O)[O-])s1	64.8
COC(=O)C1=C(c2cccc(OCc3ccccc3)c2)C[C@@H]2CC[C@H]1N2C(=O)NCc1ccc(Br)cc1	9.43
